Test system: Staphylococcus aureus
Assay: Antibacterial activity against Staphylococcus aureus 1199B assessed as reduction in bacterial growth incubated for 20 hrs by microplate reader method
Assay type: functional
property: MIC

INSERT INTO measurements (smiles_data, property, experimental_value) VALUES
  ('CC(C)C(=O)NC[C@H]1CN(c2ccc(N3CCOCC3)c(F)c2)C(=O)O1', 'MIC', '8 µg/mL'),
  ('NCC(=O)NC[C@H]1CN(c2ccc(N3CCOCC3)c(F)c2)C(=O)O1', 'MIC', '> 128 µg/mL'),
  ('O=C(Cc1nnn[nH]1)NC[C@H]1CN(c2ccc(N3CCNCC3)c(F)c2)C(=O)O1', 'MIC', '> 128 µg/mL'),
  ('O=C(NC[C@H]1CN(c2ccc(N3CCOCC3)c(F)c2)C(=O)O1)[C@@H]1CCNC1', 'MIC', '> 128 µg/mL');
